All values here come from patent US20100184701A1.

Provide the recorded b-arrestin2 Max (%) for the entries that follow.
- Target or system: T1, rat angiotensin 2 type 1 receptor (rat, UniProt P25095 1-359)
- T1 sequence (looked up): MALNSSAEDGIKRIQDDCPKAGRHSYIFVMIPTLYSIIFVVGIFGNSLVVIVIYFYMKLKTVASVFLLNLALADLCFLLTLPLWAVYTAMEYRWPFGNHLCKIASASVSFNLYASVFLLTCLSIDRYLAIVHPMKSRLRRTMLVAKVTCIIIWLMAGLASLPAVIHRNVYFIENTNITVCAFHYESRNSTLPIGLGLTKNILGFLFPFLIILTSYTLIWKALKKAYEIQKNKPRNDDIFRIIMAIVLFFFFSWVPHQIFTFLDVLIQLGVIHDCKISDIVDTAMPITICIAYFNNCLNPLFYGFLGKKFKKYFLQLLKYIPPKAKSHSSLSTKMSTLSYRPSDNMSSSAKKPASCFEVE
- Assay details: cell-based or functional assay
Non-standard residues stand in square brackets, D forms with d. No end group written: not given here. Sar = CNCC(=O)O
Your answer is read as %, so omit the unit and give the number.

Ask: State the recorded b-arrestin2 Max (%) for this entry: ERVYYHP (N-Me-Glu (N-methyl-L-glutamic acid) at 1; C-terminal amide (NH2)) [SEQ ID NO: 62]
Reply: 44.2

Ask: State the recorded b-arrestin2 Max (%) for this entry: [Sar]RVYIKP[dA]-OH (N-terminus assumed; SMILES CC[C@H](C)[C@H](NC(=O)[C@H](Cc1ccc(O)cc1)NC(=O)[C@@H](NC(=O)[C@H](CCCNC(=N)N)NC(=O)CNC)C(C)C)C(=O)N[C@@H](CCCCN)C(=O)N1CCC[C@H]1C(=O)N[C@H](C)C(=O)O) [SEQ ID NO: 50]
Reply: 85.6

Ask: State the recorded b-arrestin2 Max (%) for this entry: GRVYIHPA (Me2G (N,N-dimethylglycine) at 1) [SEQ ID NO: 32]
Reply: 80.2

Ask: State the recorded b-arrestin2 Max (%) for this entry: ARVYVHPA (NMAla (N-methyl-L-alanine) at 1) [SEQ ID NO: 33]
Reply: 86.9

Ask: State the recorded b-arrestin2 Max (%) for this entry: [Sar]RVYFHP-NH2 (N-terminus assumed; SMILES CNCC(=O)N[C@@H](CCCNC(=N)N)C(=O)N[C@H](C(=O)N[C@@H](Cc1ccc(O)cc1)C(=O)N[C@@H](Cc1ccccc1)C(=O)N[C@@H](Cc1c[nH]cn1)C(=O)N1CCC[C@H]1C(N)=O)C(C)C) [SEQ ID NO: 41]
Reply: 53.1

Ask: State the recorded b-arrestin2 Max (%) for this entry: XRVYYHP (Sar (sarcosine) at 1) [SEQ ID NO: 52]
Reply: 83.8

Ask: State the recorded b-arrestin2 Max (%) for this entry: DRVYYHP (C-terminal amide (NH2)) [SEQ ID NO: 57]
Reply: 64.4

Ask: State the recorded b-arrestin2 Max (%) for this entry: DRVYYHP (N-Me-Asp (N-methyl-L-aspartic acid) at 1; C-terminal amide (NH2)) [SEQ ID NO: 61]
Reply: 60.4

Ask: State the recorded b-arrestin2 Max (%) for this entry: DRVYFHP (C-terminal amide (NH2)) [SEQ ID NO: 63]
Reply: 50.1

Ask: State the recorded b-arrestin2 Max (%) for this entry: DRVYFHP (N-Me-Asp (N-methyl-L-aspartic acid) at 1; C-terminal amide (NH2)) [SEQ ID NO: 65]
Reply: 67.3

Ask: State the recorded b-arrestin2 Max (%) for this entry: ERVYFHP (N-Me-Glu (N-methyl-L-glutamic acid) at 1; C-terminal amide (NH2)) [SEQ ID NO: 66]
Reply: 58.5

Ask: State the recorded b-arrestin2 Max (%) for this entry: RVYIHPRVYIHPRVYIHP (cyclic, as printed: Cyclo(...)) [SEQ ID NO: 36]
Reply: 32.8

Ask: State the recorded b-arrestin2 Max (%) for this entry: ARVYIHPA (NMAla (N-methyl-L-alanine) at 1) [SEQ ID NO: 34]
Reply: 81.7
